pIC50 values, listed per item
# Assayed Target: Eukaryotic translation initiation factor 4E (Oryctolagus cuniculus, UniProt P29338)
# Sequence (P29338 whole entry): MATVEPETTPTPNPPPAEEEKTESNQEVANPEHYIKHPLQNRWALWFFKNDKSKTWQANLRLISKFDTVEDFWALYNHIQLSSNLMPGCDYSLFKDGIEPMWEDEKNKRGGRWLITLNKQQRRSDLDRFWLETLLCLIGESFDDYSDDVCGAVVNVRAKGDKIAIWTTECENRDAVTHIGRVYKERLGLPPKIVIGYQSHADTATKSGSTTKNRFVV
# Experiment Summary: Inhibition of eIF4E-mediated translation in flexi rabbit reticulocyte lysate using luciferase mRNA treated simultaneously with mRNA by luminescence based luciferase assay
Schema: pIC50 number; meaning minus log10 of the concentration expressed in molar units.

# example entries with known answers
{"Structure Smiles": "B[P@@](=O)(OC[C@H]1O[C@@H](n2c[n+](C)c3c(O)nc(N)nc32)[C@H](O)[C@@H]1O)OP(=O)([O-])CP(=O)(O)O.N.N.N.N", "pIC50": 5.59}
{"Structure Smiles": "B[P@](=O)(OC[C@H]1O[C@@H](n2c[n+](C)c3c(O)nc(N)nc32)[C@H](O)[C@@H]1O)OP(=O)([O-])CP(=O)(O)O.N.N.N.N", "pIC50": 5.35}

Here is another molecule to look at.
// query Given `C[n+]1cn([C@@H]2O[C@H](CO[P@@](=O)(S)OP(=O)([O-])CP(=O)(O)O)[C@@H](O)[C@H]2O)c2nc(N)nc(O)c21.N.N.N.N` , state its recorded pIC50.
// result 5.43

These measurements were taken from ChEMBL document CHEMBL3603763.
